- target or test system: mouse Tas2r105 (Mus musculus, UniProt Q9JKT4)
- Construct: expressed in transfected cells; host or cells: HEK293T-Gα16gust44
- Sequence (Q9JKT4 whole entry): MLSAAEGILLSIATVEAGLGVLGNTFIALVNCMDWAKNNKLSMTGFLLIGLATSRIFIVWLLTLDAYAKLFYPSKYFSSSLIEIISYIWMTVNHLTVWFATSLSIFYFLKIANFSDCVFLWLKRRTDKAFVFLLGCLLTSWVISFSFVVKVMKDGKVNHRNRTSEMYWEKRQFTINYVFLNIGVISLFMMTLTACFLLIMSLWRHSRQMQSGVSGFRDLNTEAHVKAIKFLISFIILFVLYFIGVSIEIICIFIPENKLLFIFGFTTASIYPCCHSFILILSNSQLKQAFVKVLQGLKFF
- experimental details: Calcium imaging assay (FLIPR), HEK293T-Gα16gust44 cells transfected with mouse Tas2r105
- Assay type: cell-based
- conditions used: Time 36.781 s
assay metric: RLU (RLU)
State just the number; it will be interpreted in RLU.

[
  {
    "compound": "C[C@H](CCC(=O)O)[C@H]1CC[C@H]2[C@@H]3CC[C@@H]4C[C@H](O)CC[C@]4(C)[C@H]3CC[C@]12C [Lithocholic Acid, lithocholic acid]",
    "unit annotation": "RLU",
    "observed value": 18.0239
  }
]

Req: Notebook entry, mouse Tas2r105 (Mus musculus, UniProt Q9JKT4) assay: RLU of C[C@H](CCC(=O)O)[C@H]1CC[C@H]2[C@@H]3CC[C@@H]4C[C@H](O)CC[C@]4(C)[C@H]3C[C@H](O)[C@]12C [Deoxycholic Acid, deoxycholic acid] = ?
Resp: -8.6591

Req: Moving on to C[C@H](CCC(=O)O)[C@H]1CC[C@H]2[C@@H]3[C@H](O)C[C@@H]4C[C@H](O)CC[C@]4(C)[C@H]3C[C@H](O)[C@]12C [Cholic Acid, cholic acid]
Resp: 100.025

Req: And then C[C@H](CCC(=O)NCC(=O)O)[C@H]1CC[C@H]2[C@@H]3[C@H](O)C[C@@H]4C[C@H](O)CC[C@]4(C)[C@H]3C[C@H](O)[C@]12C [Glycocholic Acid, glycocholic acid] , what is it?
Resp: 117.771

###

- target or test system: mouse Tas2r144 (Mus musculus, UniProt Q7TQB8)
- Construct: expressed in transfected cells; host or cells: HEK293T-Gα16gust44
- Sequence (Q7TQB8 whole entry): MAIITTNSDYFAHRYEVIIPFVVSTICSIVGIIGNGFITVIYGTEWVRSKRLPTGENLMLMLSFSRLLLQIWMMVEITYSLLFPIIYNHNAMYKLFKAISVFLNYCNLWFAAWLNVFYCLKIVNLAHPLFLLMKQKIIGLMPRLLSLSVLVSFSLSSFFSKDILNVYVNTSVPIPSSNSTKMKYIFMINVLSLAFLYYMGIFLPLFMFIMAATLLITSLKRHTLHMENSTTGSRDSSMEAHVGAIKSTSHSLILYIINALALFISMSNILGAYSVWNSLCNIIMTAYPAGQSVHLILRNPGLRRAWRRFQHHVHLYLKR
- experimental details: Calcium imaging assay (FLIPR), HEK293T-Gα16gust44 cells transfected with mouse Tas2r144
- Format: cell-based
- conditions used: Time 128.781 s
assay metric: RLU (RLU)
# value in RLU; strip the unit string

[
  {
    "structure": "C[C@H](CCC(=O)NCC(=O)O)[C@H]1CC[C@H]2[C@@H]3[C@H](O)C[C@@H]4C[C@H](O)CC[C@]4(C)[C@H]3C[C@H](O)[C@]12C",
    "observed value": 264.093
  }
]

Req: I'd like to know its RLU. The compound in question is `C[C@H](CCC(=O)NCCS(=O)(=O)O)[C@H]1CC[C@H]2[C@@H]3CC[C@@H]4C[C@H](O)CC[C@]4(C)[C@H]3CC[C@]12C`
Resp: 359.155

Req: Now the compound `C[C@H](CCC(=O)O)[C@H]1CC[C@H]2[C@@H]3[C@H](O)C[C@@H]4C[C@H](O)CC[C@]4(C)[C@H]3C[C@H](O)[C@]12C`
Resp: 347.376

Req: Follow-up entry: `C[C@H](CCC(=O)NCCS(=O)(=O)O)[C@H]1CC[C@H]2[C@@H]3[C@H](O)C[C@@H]4C[C@H](O)CC[C@]4(C)[C@H]3C[C@H](O)[C@]12C`
Resp: 391.35

###

- target or test system: human TAS2R1 (Homo sapiens, UniProt Q9NYW7)
- Construct: expressed in transfected cells; host or cells: HEK293T-Gα16gust44
- Sequence (Q9NYW7 whole entry): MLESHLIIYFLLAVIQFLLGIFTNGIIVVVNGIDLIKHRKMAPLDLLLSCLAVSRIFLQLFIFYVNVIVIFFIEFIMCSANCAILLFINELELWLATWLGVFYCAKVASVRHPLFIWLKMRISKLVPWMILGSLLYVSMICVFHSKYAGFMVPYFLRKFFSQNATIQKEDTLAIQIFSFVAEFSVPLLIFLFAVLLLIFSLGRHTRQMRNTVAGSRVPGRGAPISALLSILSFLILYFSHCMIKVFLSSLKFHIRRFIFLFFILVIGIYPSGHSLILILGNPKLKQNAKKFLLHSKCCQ
- experimental details: Calcium imaging assay (FLIPR), HEK293T-Gα16gust44 cells transfected with human TAS2R1
- Assay type: cell-based
- conditions used: Time 56.796 s
assay metric: RLU (RLU)
Use RLU as the unit, but write only the number.

[
  {
    "structure": "C[C@H](CCC(=O)O)[C@H]1CC[C@H]2[C@@H]3[C@H](O)C[C@@H]4C[C@H](O)CC[C@]4(C)[C@H]3C[C@H](O)[C@]12C",
    "assay metric": "RLU",
    "observed value": 763.129
  },
  {
    "structure": "C[C@H](CCC(=O)O)[C@H]1CC[C@H]2[C@@H]3[C@H](O)C[C@@H]4C[C@H](O)CC[C@]4(C)[C@H]3CC[C@]12C",
    "assay metric": "RLU",
    "observed value": 944.124
  },
  {
    "structure": "C[C@H](CCC(=O)O)[C@H]1CC[C@H]2[C@@H]3CC[C@@H]4C[C@H](O)CC[C@]4(C)[C@H]3CC[C@]12C",
    "assay metric": "RLU",
    "observed value": 818.875
  }
]

We next turn to a different compound, shown below.
Req: Recorded RLU of `C[C@H](CCC(=O)O)[C@H]1CC[C@H]2[C@@H]3[C@@H](O)C[C@@H]4C[C@H](O)CC[C@]4(C)[C@H]3CC[C@]12C` , please.
Resp: 703.514
